# assay-explanation: NCI Yeast Anticancer Drug Screen. Data for the mlh1 rad18 strain (AID 175)
# measurement-conditions: S. cerevisiae mlh1 rad18 strain growth inhibition; at 5.0 µM (retest, dose inferred, filed as 0.5)
This is part of a sample that, as a whole, favours compounds with a hit. Of some 79,000 tested, about 15% had one in any assay. The source made the active and inactive calls. Rule as the data show it: active = growth inhibition above about 70%; inactive = the rest.
Can you answer with just one of these options? YES for active, NO for inactive

Test call for this compound, please: CN(C)c1ccc(/C=C/c2nccc3ccccc23)cc1
NO

Test call for this compound, please: N=C(N)Sc1cccc[n+]1[O-]
YES

Test call for this compound, please: CC1=NN(c2ccccc2)C(=O)C1(Br)Br
NO

Test call for this compound, please: Cc1ccc(Nc2ccc(O)c3c2C(=O)c2c(O)ccc(Nc4ccc(C)cc4)c2C3=O)cc1
NO

Test call for this compound, please: COc1cc(/C=C/C(=O)CC(=O)/C=C/c2ccc(O)c(OC)c2)ccc1O
NO

Next:
Test call for this compound, please: Cc1cc(C(=O)c2ccccc2Cl)ccc1O
NO

Test call for this compound, please: CC(=O)Nc1ccc(C(=O)CCl)cc1
YES

Test call for this compound, please: O=C(CBr)c1ccc(OC(=O)c2ccccc2)cc1
NO

Test call for this compound, please: CC(O)C(=O)NCCc1ccccc1 (stereo not drawn)
NO

Test call for this compound, please: CCCCCCCCCCCCNCCCc1ccccc1
YES

Test call for this compound, please: OC(CSc1ccccc1)CN1CCN(c2ccc(Cl)cc2)CC1 (stereo not drawn)
NO
